Give measured melting point for each item. Keep answers brief.

Query: GET /values?readout=melting point&item= CC1(C)NC(=O)N(CC(CS(=O)(=O)c2ccc(-c3ccc(Cl)cc3)cc2)C(=O)O)C1=O (stereo not drawn) [Example 9]
Response: 242 to 245 °C

Query: // next record Cc1cc(C)nc(SCC(CS(=O)(=O)c2ccc(-c3ccc(Cl)cc3)cc2)C(=O)O)n1 (stereo not drawn) [Example 27]
Response: 170 to 172 °C

Query: Next record, please: CN1C(=O)N(CC(CS(=O)(=O)c2ccc(-c3ccccc3)cc2)C(=O)O)C(=O)C1(C)C (stereo not drawn) [Example 7]
Response: > 200 °C (dec.)

// provenance: patent US6765003B1
